In this section, each of the molecules is paired with its reported GI50.
- Tested on: NCI-H23
- Assay remarks: NCI tumour cell line growth inhibition, 48 h
Active and inactive are the calls of the source. Rule as the data show it: active = GI50 up to about 1.1 µM and inactive = higher.

Recorded GI50, per entry:
> print(dat)
                                   molecule              measured
1                    COc1ccc(OCC(C)(C)O)cc1   > 100 µM (inactive)
2               C=CC(=O)C#CC#CC/C=C\CCCCCCC  > 20.6 µM (inactive)
3       c1ccc2c(c1)nnn2CNc1ccc(N2CCOCC2)cc1   > 100 µM (inactive)
4  CCOC(=O)C1S/C(=N\c2ccccc2)N=C1C (stereo not drawn)    67.3 µM (inactive)
5  N#Cc1sc2c(c1OC(=O)c1ccc(Cl)cc1)c(=O)n(-c1ccccc1)c(=S)n2-c1ccccc1    21.7 µM (inactive)
6  CC(C(=O)NCCNC(=O)CCC(=O)N(C)O)C(=O)NCCNC(=O)CCC(=O)N(C)O   > 100 µM (inactive)
7  COc1c(Br)cc(Br)c(OC)c1-c1[nH]c(Br)c(Br)c1Br    2.98 µM (inactive)
8  C=C(C)C(=O)OC1C[C@H](COC(C)=O)C2CC=C(CO)C2C2OC(=O)C(=C)[C@H]12 (stereo partly drawn)    42.8 µM (inactive)

Quick check: GI50 of O=C(OCc1ccccc1)N1N=NC2C3CC(OCc4ccccc4)(OCc4ccccc4)C(O3)C21 (stereo not drawn) ?
12.8 µM (inactive)

Looking for the measured GI50 of COc1ccc2c(c1)CCCN1Cc3ccccc3CC21 (stereo not drawn) , can you help?
> 100 µM (inactive)

Entry source: ChEMBL document CHEMBL1201862
